B1: ZER1 (parent)
chain: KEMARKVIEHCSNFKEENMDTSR

variants of: B1; assay: protein stability index of a GFP-peptide fusion (GPS, HEK-293T) (PSI 1-6); higher = more stable; details: c terminus: native;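 also: lentivirally expressed fusions sorted by FACS into six bins by GFP to DsRed ratio, PSI derived from sequencing read proportions per bin multiplied by bin number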
readout.label: protein stability index
Answers are plain numbers.

I8P: 4.7
H10T: 3.98
E2W: 2.01
R23C: 4.72

# map each variant to its protein stability index
1. C11V
2. C11M
3. C11T
4. H10F
5. N13H
6. N18I
7. T21V

1. 2.84
2. 2.58
3. 4.62
4. 2.78
5. 3.53
6. 3.31
7. 3.1

# map each variant to its protein stability index
1. E2F
2. S12W
3. E9A
4. F14P
5. A4P
6. E17N
7. A4K
8. T21N

2.11
2.63
4
4.26
4.57
3.55
4.29
4.48

# map each variant to its protein stability index
1. C11K
2. K6V
3. E16A
4. T21H
5. F14K
6. R23G

[4.94, 2.52, 2.9, 2.18, 4.92, 5.08]

# map each variant to its protein stability index
1. K6D
2. N13M

[4.19, 2.88]

# map each variant to its protein stability index
1. K6I
2. K1A
3. N18A
4. E16S
5. S22Q
6. H10A
7. S12N

2.36
3.7
3.34
4.19
3.72
3.49
3.95

# map each variant to its protein stability index
1. E2G
2. T21K
3. E2M
4. R23N
5. E9V

[2.82, 1.68, 3.42, 5.16, 3.87]

# map each variant to its protein stability index
1. K15V
2. K6A
3. K6F
4. F14G
5. M19E
6. D20G
7. E17R
8. D20W

3.9
3.58
1.72
4.69
4.15
2.68
2.21
2.5

# map each variant to its protein stability index
1. M3R
2. K15T
3. I8Q
4. E2L
5. E2D

1: 3.98; 2: 4.15; 3: 4.67; 4: 2.76; 5: 3.25
